# system_name: T1, 14-3-3ζ labelled with NT647-NHS dye (human, UniProt P63104 1-245, NT647-NHS dye (Monolith Protein Labeling Kit RED-NHS); labelled residues not stated)
# T1 construct: Same construct as m1, with the fluorescent dye for MST; also called labeled 14-3-3ζ; source: E. coli BL21 (DE3), pProEX HTb plasmid, purified (Ni2+-NTA), labelled with Monolith Protein Labeling Kit RED-NHS
# T1 sequence (looked up): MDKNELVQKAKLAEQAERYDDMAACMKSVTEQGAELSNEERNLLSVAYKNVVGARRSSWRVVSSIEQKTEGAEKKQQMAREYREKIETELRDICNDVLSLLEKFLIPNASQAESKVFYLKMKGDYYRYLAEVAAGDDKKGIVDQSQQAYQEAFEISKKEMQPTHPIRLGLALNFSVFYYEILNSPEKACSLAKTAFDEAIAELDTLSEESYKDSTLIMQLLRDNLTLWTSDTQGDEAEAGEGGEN
# assay_notes: MST; TAZpS89 peptide titrated against a fixed concentration of NT647-labelled 14-3-3ζ; DPBS with 0.05% Tween20, 25 °C; apparent Kd; presence of 1 mM fragment TCF199
# run_parameters: both partners purified
Where no end group is shown, it is not given here. [ ]: non-standard residue; d: D form. pS = N[C@@H](COP(=O)(O)O)C(=O)O
property_measured: pKd
Give bare numbers, as −log10 of the molar value.

Query: Which pKd reading was recorded for the binder QHVRSH[pS]SPASLQ (TAZ-derived peptide surrounding phosphorylated Ser89; The methods of crystallisation say only 'the peptide'; also called TAZ-derived peptide; TAZ peptide; source: synthetic peptide (bought: Caslo, Denmark)) [TAZpS89 peptide] ?
Result: 7.40
